These measurements were taken from patent US8163909B2.

Overview of reported pIC50 across a group of molecules:
# target-desc: Beta Secretase enzyme (BACE) (Homo sapiens)
# Sequence (P56817 46-501): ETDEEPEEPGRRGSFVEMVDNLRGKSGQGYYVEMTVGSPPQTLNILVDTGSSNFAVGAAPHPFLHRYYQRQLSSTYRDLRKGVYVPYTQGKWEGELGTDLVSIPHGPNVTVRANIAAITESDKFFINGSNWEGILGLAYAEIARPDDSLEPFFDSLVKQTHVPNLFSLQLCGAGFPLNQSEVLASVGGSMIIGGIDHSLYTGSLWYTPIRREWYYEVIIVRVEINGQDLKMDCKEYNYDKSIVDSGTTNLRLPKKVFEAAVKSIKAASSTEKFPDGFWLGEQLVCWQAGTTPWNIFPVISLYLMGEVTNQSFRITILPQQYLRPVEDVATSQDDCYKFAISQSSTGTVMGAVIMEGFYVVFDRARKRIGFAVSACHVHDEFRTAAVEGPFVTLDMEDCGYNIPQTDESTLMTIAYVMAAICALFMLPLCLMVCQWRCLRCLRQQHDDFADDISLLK
# assay-name: In vitro enzymatic BACE FRET (fluorescence resonance energy transfer) assay;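 further: fluorescence read after 1 h with 50 nM quenched peptide substrate spanning the BACE cleavage site, in pH 4.2 acetate buffer containing 10% DMSO and nonionic detergent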
# Format: biochemical
# protocol-conditions: BACE enzyme FRET assay; read-out: BACE1 FRET assay (IC50)
pIC50: −log10 of the molar value.
readout-type: pIC50

- molecule: "CC(C)(C)Cc1cnc2c(c1)[C@@H](NC[C@@H](O)[C@H](Cc1ccc3c(c1)OCO3)NC(=O)CCl)CC1(CCC1)O2"
  experimental-value: 7.69
- molecule: "CC(=O)N[C@@H](Cc1ccnc(OCC(F)F)c1)[C@H](O)CN[C@H]1CC2(CCC2)Oc2c(F)cc(CC(C)(C)C)cc21"
  experimental-value: 8.01
- molecule: "COCCC(=O)N[C@@H](Cc1ccc2c(c1)OCO2)[C@H](O)CN[C@H]1CC2(CCC2)Oc2ncc(CC(C)(C)C)cc21"
  experimental-value: 7.68
- molecule: "CO[C@H](C)C(=O)N[C@@H](Cc1cc(F)c2c(c1)OCO2)[C@H](O)CN[C@H]1CC2(CCC2)Oc2ncc(CC(C)(C)C)cc21"
  experimental-value: 8.05
- molecule: "CC(=O)NC(Cc1cccc(F)c1)C(O)CNC1CC2(CC(O)C2)Oc2ncc(CC(C)(C)C)cc21 (stereo not shown)"
  experimental-value: 8.39
- molecule: "COCC(=O)N[C@@H](Cc1ccc(F)cc1)[C@H](O)CN[C@H]1CC2(CCC2)Oc2ncc(CCC(F)(F)F)cc21"
  experimental-value: 6.70
- molecule: "CC(=O)N[C@@H](Cc1ccc2c(c1)OCCO2)[C@H](O)CN[C@H]1CC2(CCC2)Oc2ncc(CC(C)(C)C)cc21"
  experimental-value: 7.64
- molecule: "CC(=O)N[C@@H](Cc1ccc(F)cc1)[C@H](O)CN[C@H]1CC2(CCC2)Oc2cnc(CC(C)(C)F)cc21"
  experimental-value: 6.75
- molecule: "COCC(=O)N[C@@H](Cc1cc(F)c2c(c1)OCO2)[C@H](O)CN[C@H]1CC2(CCC2)Oc2ncc(CC(C)(C)C)cc21"
  experimental-value: 8.24
- molecule: "COCC(=O)N[C@@H](Cc1ccc2c(c1)OC(C)(C)O2)[C@H](O)CN[C@H]1CC2(CCC2)Oc2ncc(CC(C)(C)C)cc21"
  experimental-value: 6.32
- molecule: "CO[C@H](C)C(=O)N[C@@H](Cc1ccc(F)cc1)[C@H](O)CN[C@H]1CC2(CCC2)Oc2cnc(CC(C)(C)F)cc21"
  experimental-value: 6.65
- molecule: "CC(=O)N[C@@H](Cc1cc(Cl)c2c(c1)OCO2)[C@H](O)CN[C@H]1CC2(CCC2)Oc2ncc(CC(C)(C)C)cc21"
  experimental-value: 8.18
- molecule: "CC(=O)N[C@@H](Cc1cc(F)c2c(c1)OCO2)[C@@H](O)CN[C@H]1CC2(CCC2)Oc2ncc(CC(C)(C)C)cc21"
  experimental-value: 7.42
- molecule: "CC(C)(C)Cc1cnc2c(c1)C(NCC(O)C(Cc1ccc(F)cc1)NC(=O)CF)CC1(CC(O)C1)O2 (stereo not shown)"
  experimental-value: 8.37
- molecule: "COCC(=O)N[C@@H](Cc1ccc2c(c1)OCO2)[C@H](O)CN[C@H]1CC2(CCC2)Oc2ncc(CC(C)(C)C)cc21"
  experimental-value: 8.21
- molecule: "COCC(=O)NC(Cc1cccc(F)c1)C(O)CNC1CC2(CC(O)C2)Oc2cnccc21 (stereo not shown) [compound 236]"
  experimental-value: 5.29
- molecule: "COC(C)C(=O)NC(Cc1cc(F)c2c(c1)OCO2)C(O)CNC1CC2(CCC2)Oc2ncc(CC(C)(C)C)cc21 (stereo not shown)"
  experimental-value: 7.24
- molecule: "COCC(=O)N[C@@H](Cc1ccc2c(c1)OCO2)[C@H](O)CN[C@H]1CC2(CCC2)Oc2cnc(C(F)(F)F)cc21"
  experimental-value: 5.13
- molecule: "CC(=O)NC(Cc1ccc(F)cc1)C(O)CNC1CC2(CC(CO)C2)Oc2ncc(CC(C)(C)C)cc21 (stereo not shown)"
  experimental-value: 4.80
- molecule: "COCC(=O)N[C@@H](Cc1ccc2c(c1)OCO2)[C@H](O)CN[C@H]1CC2(CCC2)Oc2ncc(CC(C)(F)F)cc21"
  experimental-value: 7.12
- molecule: "COCC(=O)N[C@@H](Cc1cc(Br)c2c(c1)OCO2)[C@H](O)CN[C@H]1CC2(CCC2)Oc2ncc(CC(C)(C)C)cc21"
  experimental-value: 7.02
- molecule: "CC(=O)NC(Cc1ccc(F)cc1)C(O)CNC1CC2(CC(C#N)C2)Oc2ncc(CC(C)(C)C)cc21 (stereo not shown) [compound 262]"
  experimental-value: 7.33
- molecule: "COC(C)C(=O)NC(Cc1ccc2c(c1)OCO2)C(O)CNC1CC2(CC(O)C2)Oc2cnccc21 (stereo not shown) [compound 245]"
  experimental-value: 4.40
- molecule: "COCC(=O)N[C@@H](CC1CC1)[C@H](O)CN[C@H]1CC2(CCC2)Oc2ncc(CC(C)(C)C)cc21"
  experimental-value: 7.24
- molecule: "CO[C@H](C)C(=O)N[C@@H](Cc1cc(Cl)c2c(c1)OCO2)[C@H](O)CN[C@H]1CC2(CCC2)Oc2ncc(CC(C)(C)C)cc21"
  experimental-value: 7.91
